This section presents molecules with their documented relative viability values.
System: NCI-H838
Assay: relative viability (nuclei count vs DMSO), 5 days (fraction); higher = more cells survive
Conditions: first compound 500 µM

Study these solved cases before continuing.
1. O=C(O)CCCCC(CCSCc1ccccc1)SCc1ccccc1 (stereo not given) [CPI-613] + C[C@]1(O)C[C@@H](c2nc(-c3ccc4ccc(-c5ccccc5)nc4c3)c3c(N)nccn32)C1 [Linsitinib] (partner 1 µM)    0.0935
2. O=C(O)CCCCC(CCSCc1ccccc1)SCc1ccccc1 (stereo not given) [CPI-613] + Nc1ncn([C@H]2C[C@H](O)[C@@H](CO)O2)c(=O)n1 [Decitabine] (partner 2 µM)    0.104
3. O=C(O)CCCCC(CCSCc1ccccc1)SCc1ccccc1 (stereo not given) [CPI-613] + COc1cccc2cc(-c3nc([C@H]4CC[C@H](C(=O)O)CC4)n4ncnc(N)c34)[nH]c12 [OSI-027] (partner 0.5 µM)    0.0809
4. O=C(O)CCCCC(CCSCc1ccccc1)SCc1ccccc1 (stereo not given) [CPI-613] + CCNC(=O)c1noc(-c2cc(C(C)C)c(O)cc2O)c1-c1ccc(CN2CCOCC2)cc1 [Luminespib] (partner 0.01 µM)    0.0891

Shifting focus to the molecule that follows.
Looking up O=C(O)CCCCC(CCSCc1ccccc1)SCc1ccccc1 (stereo not given) [CPI-613] + NC(=O)Nc1cc(-c2cccc(F)c2)sc1C(=O)N[C@H]1CCCNC1 [AZD7762] (partner 0.2 µM) , I see its relative viability listed as 0.912

Sourced from the supplement of paper PMC10307832
